Exercise: state measured melting point for each of the molecules provided.

Answered cases to consult:
- Molecule: "CCC(=O)N1N=C(c2ccc(N)cc2)c2cc(Cl)ccc2CC1C (stereo not drawn)"
  melting point: "118 to 120 °C"
- Molecule: "COC(=O)c1c(Cc2ccc(C(=O)CBr)cc2)c(=O)c2ccc(C)nc2n1-c1ccccc1"
  melting point: "189 to 191 °C"

Now let's try a different one.
Please report the recorded melting point for O=C1C=CC(O)(c2nc3ccccc3s2)C(Cl)=C1 (stereo not drawn) .
140 to 143 °C

* * *

Parameter: melting point

Below are 5 compounds. Give each one its melting point.
1. CC(=O)OC1CSC(Oc2cc(-c3ccc(C#N)cc3)cnc2F)C(OC(C)=O)C1OC(C)=O (stereo not drawn)
2. Brc1csc(C#Cc2ccccc2)n1
3. CCOC(=O)c1nnc2ccc(-c3ccco3)cc2c1O
4. Cc1ccc(C(=O)Nc2ccc(C[C@H](NC(=O)Nc3ccccc3S(=O)(=O)c3ccccc3)C(=O)O)cc2)c(Cl)n1
5. C=CCC1(CC=C)CCC(=Cc2ccc(Cl)cc2)C1(O)Cn1cncn1 (stereo not drawn)

1: 132 to 133 °C; 2: 79 to 82 °C; 3: 198 to 200 °C; 4: 210 °C; 5: 128 °C

* * *

Give melting point for every item shown.

Known results for compounds:
- Compound: "O=C(CCCCC1CCSS1)NC(Cc1c[nH]cn1)C(=O)O (stereo not drawn)"
  melting point: "122 to 126 °C"
- Compound: "CCOC(=O)N(C)n1cccc1C(=O)c1ccccc1F"
  melting point: "64 to 66 °C"

Param item = CCN(C(=O)c1cnc(N2CC(C)NC2=O)nc1N)c1cccc(C(F)(F)F)c1 (stereo not drawn) ; retrieve measured melting point.
207 to 208 °C

* * *

Answer each item with its documented melting point.

Consider the reported melting point for these molecules:
- Molecule: "CCOC(=O)CCc1ccc(C(C)(C)C)c(NC(=O)CC2c3ccccc3Oc3ccccc32)c1"
  melting point: "160 to 162 °C"
- Molecule: "CSc1ccc(CN(C)CCCCc2ccc(NC(=O)c3cccc4c(=O)c5ccccc5[nH]c34)cc2)cc1"
  melting point: "135 °C"
- Molecule: "CN1CC[C@@H](c2c(O)cc(O)c3c(=O)cc(-c4cccc(F)c4Br)oc23)[C@@H]1CO"
  melting point: "237 to 239 °C"
- Molecule: "O=c1cc(-c2nc3ccccc3[nH]2)oc2ccccc12"
  melting point: "232 °C"

Give melting point for each of the items listed below.
1. CC(C)n1nc(-c2c(-c3ccccc3)nn3ccc(Oc4ccncc4)cc23)ccc1=O
2. COCC(=O)NCc1cccc2c1CN(C1CCC(=O)NC1=O)C2=O (centres undefined)
3. Cc1cn(C(c2ccccc2)(c2ccccc2)c2ccccc2)cn1
4. O=[N+]([O-])c1ccc(OCCc2ccc(CCl)cn2)cc1
5. COc1ccc(C(=N)N(N)c2c(Cl)cncc2Cl)cc1OC1CCCC1

218 to 220 °C
232 to 234 °C
214 to 216 °C
77 to 78 °C
130 to 131 °C

* * *

Parameter: melting point

- Molecule: "CCN1CCCC(c2ccc(OC)c(OC)c2)C1 (stereo not drawn)"
  melting point: "50 °C"
- Molecule: "CC1CC2=CC(=O)CCC2C2CCC3(C)C(C(F)F)CCC3C12 (stereo not drawn)"
  melting point: "131 to 135 °C"
- Molecule: "COCCc1cccc2oc(C(=O)Nc3ccc(-c4ccc(S(=O)(=O)NC(C(=O)OC)C(C)C)cc4)cc3)c(C)c12 (stereo not drawn)"
  melting point: "67 to 70 °C"
- Molecule: "O=C(O)c1cn(-c2ccc(F)cc2)c2c(F)c(N3Cc4ccc(F)cc4C3)c(F)cc2c1=O"
  melting point: "> 300 °C"

Batch lookup, melting point per entry.
1. CC[C@]12CC[C@@H]3c4ccc(O)cc4CC[C@H]3[C@@H]1C=CC2=O
2. O=C(Nc1ccc(-n2nc(C(F)(F)F)cc2C(F)(F)F)cc1)C1CCCCC1
3. CCN(CC)C(=O)/C=C(\C)c1ccc(OCc2c(F)cccc2F)c(CC(=O)O)c1
4. CCCCCCOc1ccccc1C(=NCCC(C)(C)C)NC#N
5. CCNn1cc(C(=O)O)c(=O)c2cc(F)c(Cl)cc21
6. CCN(C)C(=O)c1nn(-c2ccc(Cl)cc2)c(=O)c2c(N)scc12

1. 230 °C
2. 178 to 180 °C
3. 167 to 168 °C
4. 89 to 90 °C
5. 258 °C
6. 148 to 150 °C

Provide reported melting point for each item, in the same order as listed.
1. CNC(=O)c1c(-c2ccccc2)noc1CC(O)c1ccccc1 (stereo not drawn)
2. COc1ccc(CNC(=O)CCC(=O)c2ccc3[nH]c4ncc(Cl)cc4c3c2)cc1
3. O=C(c1ccccc1O)c1ccc(O)c(Cl)c1Cl
4. COC(=O)COc1ccc(Cc2ncc(C(F)(F)F)cc2Cl)c(Cl)c1Cl
5. CN1CC2CC1CN2c1ccc(NC=C2C(=O)NC(=O)c3ccc(I)cc32)cc1 (stereo not drawn)
6. COc1ccc(CN(CCN(C)CCNC(=O)NCCSCc2csc(NC(=N)N)n2)c2ccccn2)cc1

183 to 184 °C
228 °C
200 to 202 °C
110 to 111 °C
210 to 211 °C
84 °C

Hey, quick one: what's melting point for each of these?
1. COc1ccc(C(=O)C=Cc2ccccc2O)c(OC)c1OC
2. CC(C)n1c(N2CCN(C)CC2)nc2cc(Cl)c(N)cc21
3. CC(=O)OC1CSC(Oc2cccc(-c3cccnc3Cl)c2)C(OC(C)=O)C1OC(C)=O (stereo not drawn)
4. CN1C(=O)CN(C(=O)Cl)C(c2ccccc2)c2cc(Cl)ccc21 (single isomer, unassigned; (-))
5. COc1ccc(C(=O)Nc2nc3ccc(N(C)C)cc3c(NCc3ccccc3)c2C#N)cc1

1: 123 °C; 2: 192 to 193 °C; 3: 146 to 147 °C; 4: 201 to 204 °C; 5: 185 °C

For each of the molecules below, note its melting point.
1. CS(=O)c1ncc2ccc(=O)n(-c3ccccc3)c2n1 (stereo not drawn)
2. O=C(O)c1ccc(NCCCc2ccc(Cl)cc2)cc1

1: 248 to 250 °C; 2: 191 to 192 °C

* * *

Parameter: melting point

- Molecule: "CC(C)(C)OC(=O)Nc1ccc(OC(=O)C2CCCCC2)c(C(=O)O)c1"
  melting point: "68 to 74 °C"
- Molecule: "Cn1ncc2c1-c1cc(Cl)ccc1OC2"
  melting point: "80.5 to 81 °C"
- Molecule: "CNc1sc(-c2cccnc2)nc1C(F)(F)F"
  melting point: "152 to 157 °C"
- Molecule: "CCn1c(C(C)NS(=O)(=O)c2ccc(Cl)c(Cl)c2)cnc1Oc1ccc2cc[nH]c2c1 (centres undefined)"
  melting point: "150 to 154 °C"
- Molecule: "O=C(COc1ccc2ccccc2c1)Nc1ccc(C(=O)C(=O)O)cc1"
  melting point: "215 to 216 °C"

Can you give me melting point for all of these, one by one?
1. Cc1nc2c(OCc3c(Cl)ccc(N(C)C=O)c3Cl)cccn2c1Br
2. COCCOc1cc(NC(=O)OC(C)(C)C)c(NC(=O)CC(=O)c2cccc(-n3ccnc3)c2)cc1-c1ccc(F)cc1
3. C=CCn1c(C)c(C)c2cnnc(OCc3ccc(C(F)(F)F)cc3)c21
4. COCC1(CCCCCCCCCCCCC2(C(=O)O)CC2)CC1
5. N#CC1=C(C2CCCN2)Nc2n[nH]cc2C1c1cccc(C#N)c1Br (centres undefined)
6. Cc1cc(-c2nc3cc(NC(=O)c4c(C(=O)N5CCC5)cnn4C)ccn3n2)ccn1

["207 to 209 °C", "61 to 63 °C", "95 to 96 °C", "36.4 to 37.6 °C", "> 240 °C", "210 to 211 °C"]

Please give melting point for each item listed below.
1. O=C(NCCc1c[nH]c2ccccc12)OCC1CC1
2. CC(=O)OC1CC2C1N(C(C)=O)C(=O)N2C(C)=O (centres undefined)
3. Cc1cc(C)c2c(n1)-c1ccccc1C2=O

["88 to 90 °C", "148 to 150 °C", "102 to 104 °C"]

* * *

Give measured melting point for each item. Keep answers brief.

Consider the reported melting point for these compounds:
- Compound: "COc1ccc(C(=O)Sc2ccc(C(=O)O)cc2)cc1C(C)(C)C"
  melting point: "220 to 221 °C"
- Compound: "Cc1ccc(C(C)CC(=O)NC(C)c2ccc(NS(C)(=O)=O)c(F)c2)cc1C (stereo not given)"
  melting point: "152 to 154 °C"
- Compound: "CS(=O)(=O)On1nnc2ccc([N+](=O)[O-])cc21"
  melting point: "115 to 116 °C"

Provide each entry's melting point from the list below.
1. Cc1nc2ccc(Cn3ccnc3)cc2nc1Cl
2. COc1cc2oc(=O)c(CCN3CCN(c4ccccc4)CC3)c(C)c2cc1OC

116 °C
169 to 172 °C
